Tested on: MS2 coat protein
TEST_NAME: apparent KD of MS2 coat protein; higher = weaker reporter binding
DETAILS: Eterna round: R107; input ligand: theophylline 2 mM
# apparent KD of MS2 coat protein per entry
Write the answer as a number in nM, unit excluded.

Some solved cases for reference:
{"INPUT_SEQUENCE": "UCACAUGAGGAUCACCCAUGUAUAGUUGAAGGAGCGAUCAGGAGGUCAGGUAGGUCGCAGCACAUGAGGAUCACCCAUGUAUCGA [DOUBLE!!! :-D #4]", "MEASURED_ATTRIBUTE": "apparent KD of MS2 coat protein", "RECORDED_RESULT": 50.4}
{"INPUT_SEQUENCE": "AACAUGAGGAUCACCCAUGUCUGAACUGAAGGAGCGCUAAAUAAGGCAGGUAGGUCGCGGAAUUUUAUAUAUAUAUAUAUAUAGG [9.D]", "MEASURED_ATTRIBUTE": "apparent KD of MS2 coat protein", "RECORDED_RESULT": 19.8}

# ---- query sequence ----
Documented apparent KD of MS2 coat protein of GCGUUGGCCACGGCCGCCACUCAGGUACCGCGCGUAGUGAACUUACAUGAGGAUCACCCAUGUCUGAGGACCGGGUGGCCGCCAC [theeternabot_sameState_MS2_Trp_B_27] : 46.1
